systemUnderTest: T1, Mouse serum albumin (mouse, UniProt P07724 25-608)
T1 construct: mature; bought purified protein; coupled to CM5 BIAcore chip; also called mouse SA; MSA
procedureText: SPR, BIAcore 3000, serum albumin coupled to CM5 chip;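 also: Cross-reactivity of anti-serum albumin domain antibodies measured against human, cynomolgus monkey, rat and mouse serum albumin, binding kinetics giving Kd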
pKd: −log10 of the molar value.
If the reported pKd equals or exceeds 7, assign yes (1). If not, assign no (0).

## Input Tell me whether pKd is at least 7 here: DOM7r-36-107 (VHH, VH immunoglobulin single variable domain (dAb, AlbudAb), not a camelid VHH; tested with a myc tag; not shown: myc tag) VHH: EVQLLESGGGLVQPGGSLRLSCAASGFTFNHYTMGWVRQAPGKGREWVSLIHPSGTVTYYADSVKGRFTISRDNSKNTLYLQMNSLRAEDTAVYYCAKWEKKYFDYWGQGTLVTVSS
## Output no (0)

## Input Tell me whether pKd is at least 7 here: DOM7r-92-102 (VHH, VH immunoglobulin single variable domain (dAb, AlbudAb), not a camelid VHH; tested with a myc tag; not shown: myc tag) VHH: EVQLLESGGGLVQPGGSLRLSCAASGFTFDTSSMLWVRQAPGKGLEWVSVIHQSGTPTYYADSVKGRFTISRDNSKNTLYLQMNSLRAEDTAVYYCAKFPSSQFRFDYWGQGTLVTVSS
## Output no (0)

## Input Tell me whether pKd is at least 7 here: DOM7r-36-103 (VHH, VH immunoglobulin single variable domain (dAb, AlbudAb), not a camelid VHH; tested with a myc tag; not shown: myc tag) VHH: EVQLLESGGGLVQPGGSLRLSCAASGFTFNHYTMGWVRQAPGKGREWVSLIHPSGTVTYYADSVKGRFTTSRDNSKNTLYLQMNSLRAEDTAVYYCAKWDRKLFDHWGQGTLVTVSS
## Output no (0)

## Input Tell me whether pKd is at least 7 here: DOM7r-92-101 (VHH, VH immunoglobulin single variable domain (dAb, AlbudAb), not a camelid VHH; tested with a myc tag; not shown: myc tag) VHH: EVQLLESGGGLVQPGGSLRLSCAASGFTFDTSSMLWVRQAPGKGLEWVSVIHQSGTPTYYADSVKGRFTISRDNSKNTLYLQMNSLRAEDTAVYYCAKFPSRKMKFDYRGQGTLVTVSS
## Output yes (1)

## Input Tell me whether pKd is at least 7 here: DOM7r-36-108 (VHH, VH immunoglobulin single variable domain (dAb, AlbudAb), not a camelid VHH; tested with a myc tag; not shown: myc tag) VHH: EVQLLESGGGLVQPGGSLRLSCAASGFTFNHYTMGWVRQAPGKGREWVSLIHPSGTVTYYADSVKGRFTTSRDNSKNTLYLQMNSLRAEDTAVYYCAKLEGRSFDYWGQGTLVTVSS
## Output yes (1)

## Input Tell me whether pKd is at least 7 here: DOM7r-36-102 (VHH, VH immunoglobulin single variable domain (dAb, AlbudAb), not a camelid VHH; tested with a myc tag; not shown: myc tag) VHH: EVQLLESGGGLVQPGGSLRLSCAASGFTFNHYTMGWVRQAPGKGREWVSLIHPSGTVTYYADSVKGRFTISRDNSKNTLYLQMNSLRAEDTAVYYCAKWFYRNFDYWGQGTLVTVSS
## Output no (0)
